Target: T1, Mouse IL2Rγ extracellular domain expressed with a C-terminal myc-myc-hexahistidine tag (mouse)
T1 construct: whole entry is the tagged construct; also called mIL-2Rg-MMH
T1 chain: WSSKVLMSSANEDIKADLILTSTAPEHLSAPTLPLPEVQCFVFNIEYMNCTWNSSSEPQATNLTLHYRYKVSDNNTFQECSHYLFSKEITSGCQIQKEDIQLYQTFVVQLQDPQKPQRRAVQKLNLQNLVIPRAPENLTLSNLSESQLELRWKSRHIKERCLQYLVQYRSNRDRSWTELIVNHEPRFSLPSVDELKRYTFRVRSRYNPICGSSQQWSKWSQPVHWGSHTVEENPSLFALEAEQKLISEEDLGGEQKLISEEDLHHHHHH
Assay: SPR Biacore 4000, anti-hFc-captured mAb, 37 C
MEASURED_ENDPOINT: 100 nM Ag Bound (RU)

- H4H13541P (antibody, human IgG4 S228P, kappa, V domains shown, fully human anti-IL2Rgamma mAb, human IgG4 Fc) VH: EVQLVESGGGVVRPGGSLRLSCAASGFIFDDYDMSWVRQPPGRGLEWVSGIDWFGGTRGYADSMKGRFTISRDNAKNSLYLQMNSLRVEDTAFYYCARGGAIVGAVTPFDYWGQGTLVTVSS VL: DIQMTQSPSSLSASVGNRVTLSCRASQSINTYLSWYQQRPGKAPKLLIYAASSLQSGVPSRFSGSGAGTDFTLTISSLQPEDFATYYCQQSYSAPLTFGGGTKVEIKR: 4
- H4H12874P (antibody, human IgG4 S228P, kappa, V domains shown, fully human anti-IL2Rgamma mAb, human IgG4 Fc) VH: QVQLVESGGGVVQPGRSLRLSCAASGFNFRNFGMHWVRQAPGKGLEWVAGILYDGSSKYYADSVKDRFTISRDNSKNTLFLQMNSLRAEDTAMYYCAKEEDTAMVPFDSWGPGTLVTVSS VL: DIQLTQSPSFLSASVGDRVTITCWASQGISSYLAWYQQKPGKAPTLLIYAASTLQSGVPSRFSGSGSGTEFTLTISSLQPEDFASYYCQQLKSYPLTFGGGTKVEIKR: 0
- H4H12886P (antibody, human IgG4 S228P, kappa, V domains shown, fully human anti-IL2Rgamma mAb, human IgG4 Fc) VH: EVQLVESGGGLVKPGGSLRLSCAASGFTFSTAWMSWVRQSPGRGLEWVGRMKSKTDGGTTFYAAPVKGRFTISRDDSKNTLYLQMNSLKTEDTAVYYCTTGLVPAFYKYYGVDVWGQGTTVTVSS VL: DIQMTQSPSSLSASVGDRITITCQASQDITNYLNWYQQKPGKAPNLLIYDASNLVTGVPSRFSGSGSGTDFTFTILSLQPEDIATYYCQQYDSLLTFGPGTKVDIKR: -2
- H4H12900P (antibody, human IgG4 S228P, kappa, V domains shown, fully human anti-IL2Rgamma mAb, human IgG4 Fc) VH: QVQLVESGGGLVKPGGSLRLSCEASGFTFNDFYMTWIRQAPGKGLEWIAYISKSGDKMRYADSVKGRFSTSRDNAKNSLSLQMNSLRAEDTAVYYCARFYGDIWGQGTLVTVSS VL: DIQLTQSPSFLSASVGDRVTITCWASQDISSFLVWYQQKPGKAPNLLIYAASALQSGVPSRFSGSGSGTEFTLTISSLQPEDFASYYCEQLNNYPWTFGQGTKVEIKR: 32
